Would you kindly list Nb2-11 proliferation IC50 for each of these binders?
experimentalSystem: T1, rat PRLR on Nb2-11 rat lymphoma cells (rat, UniProt P05710 20-610)
T1 sequence (looked up): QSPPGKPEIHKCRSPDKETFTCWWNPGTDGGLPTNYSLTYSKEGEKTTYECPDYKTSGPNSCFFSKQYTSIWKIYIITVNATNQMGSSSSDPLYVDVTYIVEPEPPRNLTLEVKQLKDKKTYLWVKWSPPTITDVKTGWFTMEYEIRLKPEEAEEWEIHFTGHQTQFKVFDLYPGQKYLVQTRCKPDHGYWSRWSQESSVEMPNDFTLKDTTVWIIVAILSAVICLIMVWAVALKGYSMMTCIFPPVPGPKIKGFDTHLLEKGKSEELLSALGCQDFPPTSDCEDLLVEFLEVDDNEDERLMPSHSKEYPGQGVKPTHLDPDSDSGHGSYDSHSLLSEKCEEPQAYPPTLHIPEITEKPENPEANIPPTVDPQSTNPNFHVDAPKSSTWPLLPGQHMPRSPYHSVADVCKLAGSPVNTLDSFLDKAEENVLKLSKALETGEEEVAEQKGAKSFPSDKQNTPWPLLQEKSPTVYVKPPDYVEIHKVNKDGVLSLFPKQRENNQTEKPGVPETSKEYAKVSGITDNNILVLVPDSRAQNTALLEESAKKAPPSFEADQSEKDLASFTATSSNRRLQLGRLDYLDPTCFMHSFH
assayMethodText: cell-based or functional assay

Specify measured Nb2-11 proliferation IC50 for chAb5 (antibody, human IgG1, kappa, V domains shown, chimeric, murine variable and human G1/kappa constant regions) VH: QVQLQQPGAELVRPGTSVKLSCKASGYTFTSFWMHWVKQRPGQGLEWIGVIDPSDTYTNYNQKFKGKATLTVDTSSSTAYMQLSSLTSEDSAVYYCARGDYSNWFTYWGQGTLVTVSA VL: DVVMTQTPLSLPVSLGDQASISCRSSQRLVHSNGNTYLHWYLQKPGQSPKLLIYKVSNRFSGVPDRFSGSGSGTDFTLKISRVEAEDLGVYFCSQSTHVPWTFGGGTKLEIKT .
0.69 µg/mL

Specify measured Nb2-11 proliferation IC50 for Ab9 (antibody, V domains shown, murine monoclonal, isotype G2b; also called murine Ab9) VH: EVQLQQSGPELVRPGASVKISCKASGYSFTDYNMHWVKQSHGKSLEWIGYIYPYNGGAGYNQKFKSKATMNVGISSSTAYMELRSLTSEDSAVYYCARGDGNYVGDMDYWGQGTSVTVSS VL: DIQMTQSPASLSASVGETVTITCRASENIYSYLAWYQQKQGKSPQLLVYNAKTLAEGVPSRFSGSGSGTQFSLKINSLQPEDFGSYYCQHHSGTPFTFGSGTKLEIK .
> 30 µg/mL

Specify measured Nb2-11 proliferation IC50 for Ab10 (antibody, V domains shown, murine monoclonal, isotype G2a; also called murine Ab10) VH: EVQLHQSGPELVKPGASVKISCKASGYTFTDYNMHWMKQSHGKSLEWIGYFYPYNGGTGYNQEFKNKATLTVDISSSTAYMELRRLTSEDSAVYYCARGGWGIYYAMDYWGQGTSVTVSS VL: DIQMTQSPASLSASVGETVTITCRASENIYSYLTWYQQKQGKSPQLLVYNAKTLAEGVPSRFSGSGSGTQFSLKINSLQPEDFGSYHCQHHSVTPLTFGAGTKLELK .
> 30 µg/mL
